# Assay System: T1, CotA-His6 (Clostridium difficile, UniProt Q186G8 SEQ:1-305)
# T1 sequence: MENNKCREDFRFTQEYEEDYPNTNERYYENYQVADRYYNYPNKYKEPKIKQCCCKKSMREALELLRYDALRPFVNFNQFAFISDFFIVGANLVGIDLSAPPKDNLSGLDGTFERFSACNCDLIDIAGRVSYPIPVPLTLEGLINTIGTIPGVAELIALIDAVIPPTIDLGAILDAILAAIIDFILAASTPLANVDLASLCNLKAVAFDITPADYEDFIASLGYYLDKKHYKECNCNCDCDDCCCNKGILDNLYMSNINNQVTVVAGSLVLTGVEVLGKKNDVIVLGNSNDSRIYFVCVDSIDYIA
# Method Summary: SPR; 1.84E-08; protein immobilized
# Condition Info: tags: His6
Property Label: Kd

[[record]]
binder = "ACTCAAGGCCGTGGACTGGTCGGGTTTGGATTCGGCAGATGAATCACT (ssDNA) [CotA C1.1]"
property_label = "Kd"
reported_result = "18.4 nM"

